FYI, the data here is from the RNAGym collection of RNA variant scans (doi:10.7554/elife.80360).

B1: HDV Ribozyme (parent)
chain: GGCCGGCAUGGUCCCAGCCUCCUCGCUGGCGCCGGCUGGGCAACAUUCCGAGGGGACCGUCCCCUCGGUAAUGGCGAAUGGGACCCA

variants of: B1; test: self-cleavage, relative activity (ratio to wild type); higher = more cleavage; co-transcriptional
Outcome label depends on self-cleavage relative to 0.5: at/above gives true, below gives false.

Request: Is reported self-cleavage greater than or equal to 0.5 here: GGCCGGCAUGGUCCCAGCCUCCUCGCUGGAGCCGGCUGGGCAACAUUCCGAGGGGACCGUCCCCUCGGUAACGGCGAAUGGGACCCA [C30A U72C]
Response: false

Request: Identify whether the reported self-cleavage of the following variant is 0.5 or greater: GGCCGGAAUGGUCCCAGCCUCCUCGCUGGCGCCGGCUGGGCAACAUUCCGAGGGGACCGUCCCCUCGGUAAUGGCGAAUGGGAUCCA [C7A C84U]
Response: false

Request: # bool: self-cleavage of GGCCGGCAUGGUCCCAGCCUCCUCGCUGGCGCCGGCUGGGCGACAUUCCGAGGGGACCGUCCCCUCGGGAAUGGCGAAUGGGACCCA [A42G U69G] >= 0.5
Response: true

Request: Reported self-cleavage at or above 0.5? GGCCGCCAUGGUCCCAGCCUCCUCGCUGGCGCCGGCUGGGCAACAUUCCGAGGGGACCGUCCCCACGGUAAUGGCGAAUGGGACCCA [G6C U65A]
Response: false

Request: Quick check, self-cleavage >= 0.5? GGCCGGAAUGGUCCCAGCCUCCUCGCUAGCGCCGGCUGGGCAACAUUCCGAGGGGACCGUCCCCUCGGUAAUGGCGAAUGGGACCCA [C7A G28A]
Response: false

Request: Please tell me: is the variant GGCCGGCUUGGUCCCAGCCUCCUCGCUGGCGCCGGCUGGGCAACAUUCCGAGCGGACCGUCCCCUCGGUAAUGGCGAAUGGGACCCA [A8U G53C] at or over 0.5 in terms of self-cleavage?
Response: true

Request: Confirm if self-cleavage reported for the variant GGCCGGCAUGGUCCCAGCCUCCUCGCUGGCGCCGGCUGAGCAACAUUCCGAGGGGACCGUCCACUCGGUAAUGGCGAAUGGGACCCA [G39A C63A] is 0.5 or above.
Response: true

Request: Determine whether this variant has self-cleavage no lower than 0.5: GGCCGGCAUGGUCCCAGCCUCCUCGCUGGCGCCGGAUGGGCAACAUUCCGAGGGGACCGUCCCCUCGAUAAUGGCGAAUGGGACCCA [C36A G68A]
Response: false

Request: Determine whether measured self-cleavage meets or exceeds 0.5 for GGCCGGCAUGGUCCCAGCCUCCUCGCUGGCGCCGGCUGGGCAGCAUUCCGAGGGGACCGUCCCCUCGGUAAUGGCGAAUGGGACGCA [A43G C85G]
Response: true

Request: hey, is self-cleavage for this one >= 0.5? GUCCGGCAUGGUCCCAGCCUCCUCGCUGGCGCCGGCUGAGCAACAUUCCGAGGGGACCGUCCCCUCGGUAAUGGCGAAUGGGACCCA [G2U G39A]
Response: false

Request: Say whether GGCCGGCAUGGUCCCAGCCUCCUCGCUGGCGCCGGCUGGGCAACAUUCCGAGGGGACCGUCCCCUCGGUAAUUGCGAAUUGGACCCA [G73U G80U] shows self-cleavage of 0.5 or more.
Response: false

Request: Quick check, self-cleavage >= 0.5? GGCCGGCAUGGUCCCAGCCUCCUCGCUGGCGCCGGCUGGGCAACAUUCCGAGGGGACCGUGCCCUCGCUAAUGGCGAAUGGGACCCA [C61G G68C]
Response: true

Request: Determine whether measured self-cleavage meets or exceeds 0.5 for GGCCGGCAUGGUCCCAGCCUCCUCGCUGGUGCCGGCUGGGCAACAUUCCGAGGGGACCGUCCCUUCGGUAAUGGCGAAUGGGACCCA [C30U C64U]
Response: true

Request: Test whether the variant GGCCGGCAUGGUCCCAGCCUCCUCGCUGGCGCCGGCUGGACAUCAUUCCGAGGGGACCGUCCCCUCGGUAAUGGCGAAUGGGACCCA [G40A A43U] records self-cleavage of 0.5 or higher.
Response: false

Request: Please indicate if the recorded self-cleavage for GGCCGGCAUGGUCCCAGCCUCCUCGCUGGCGCCGGUUGGGCAACAUUCCGAGGGGACCGUCCCCUCGGUAAUGGCGAAUGGGUCCCA [C36U A83U] meets or exceeds 0.5.
Response: false

Request: Is self-cleavage for GGCCGGCAUGGUCCCAGCCUCCUCGCUGGCGGCGGCUGGGCAACAUUCCGAGGGGACGGUCCCCUCGGUAAUGGCGAAUGGGACCCA [C32G C58G] at or above 0.5?
Response: false

Request: Item GGCCGGCAUGGUCCCAGCCUCCUCGCUGGCGCCGGCUGGGCAACAUUCCGAGGGGACCGUCCCCUCGGUAAUGGCCAAGGGGACCCA [G76C U79G] with self-cleavage of 0.5 or above?
Response: true

Request: Decide: self-cleavage of GGCCGGCAUGGUCCCAGCCUCCUCGCUGGCGCCGGCUGGGCAACAUUCCGAGGGGACCGUGUCCUCGGUAAUGGCGAAUGGGACCCA [C61G C62U] >= 0.5?
Response: true

Request: Dear colleague, could you confirm whether GGCCGGCAUGGUCCCAGCCUCCUAGCUGGCGCCGGCUGGGCAACAUUCUGAGGGGACCGUCCCCUCGGUAAUGGCGAAUGGGACCCA [C24A C49U] has self-cleavage at or above 0.5?
Response: true

Request: Dear colleague, could you confirm whether GGCCGGCAUGGUCCCAGCCUCCUCGCUGGCGCCGGCUGGGCAACAUUCCGGGGGGACCGUCCCCUCGGUAAUGGCGAAUAGGACCCA [A51G G80A] has self-cleavage at or above 0.5?
Response: false

Request: Kindly determine if self-cleavage recorded for GGCCGGCAUGGUCCCAGCCUCCUCGCUGGCGCCGGCUGGGCAACAUUCUGAGGGGACCGUCCCGUCGGUAAUGGCGAAUGGGACCCA [C49U C64G] is above or exactly 0.5.
Response: true

Request: Textbook exercise: given the entry GGCCGGCAUGGUCCCAGCCUCCUCGCCGGCGCCGGCUGGGCAACAUUCCGAGGGGACCGUCCCCUCGGUAAUGGCGAAUGAGACCCA [U27C G81A] , state whether its self-cleavage is greater than or equal to 0.5.
Response: false

Request: In plain terms: is recorded self-cleavage at least 0.5 for GGCCGGCAUAGUCCCAGCCUCCUCGCUGGCGCCGGCUGGUCAACAUUCCGAGGGGACCGUCCCCUCGGUAAUGGCGAAUGGGACCCA [G10A G40U] ?
Response: true

Request: Test whether the variant GGCCGGCAUGGUCCCAGCCUCCUCGGUGGCGCCGGCUGGGCAACAUUCCGAGCGGACCGUCCCCUCGGUAAUGGCGAAUGGGACCCA [C26G G53C] records self-cleavage of 0.5 or higher.
Response: true

Request: Evaluate GGCGGGCAUGGUCCCAGCCUCCUCGCUGGCGCCGGCUGGGCAACAUUCCGAGGGGACCGUCCCCUCGGUAAUGGCUAAUGGGACCCA [C4G G76U] : self-cleavage at minimum 0.5?
Response: false

Request: Determine whether this variant has self-cleavage no lower than 0.5: GGCCGGCAUGGUCCCAGCCUGCUCGCUGGCGCCGACUGGGCAACAUUCCGAGGGGACCGUCCCCUCGGUAAUGGCGAAUGGGACCCA [C21G G35A]
Response: false

Request: Could you please find out whether GGCCGGUAUGGUCCCAGCCUCCUCGCUGGCGCCGGCUUGGCAACAUUCCGAGGGGACCGUCCCCUCGGUAAUGGCGAAUGGGACCCA [C7U G38U] has self-cleavage that meets 0.5 or exceeds it?
Response: false

Request: Check if self-cleavage >= 0.5 (inclusive). Item: GGCCGGCAUGGUCCCAGCCUCCUCGCUGGCGCCGGCUGGGCAACAUUCCGAGGGGACCGUCCCCUCGGUAAUGGCGAUUGCGACCCA [A78U G81C]
Response: false

Request: For this variant, is measured self-cleavage 0.5 or higher? GGCCGGCAUGGUCCCAGCCUCCUCGCUGGCGCCGGCUGGGCAACAUUUCGAGGGGACCGUCCCCUCGGCAAUGGCGAAUGGGACCCA [C48U U69C]
Response: true

Request: Given the entry GGCCGGCAUGGUCCCAGCCUCCUCGCUGGCGCCGGCUGGGCAACAUUCCGAGGGGACCGUCCCUUCGGUAAUGGCGCAUGGGACCCA [C64U A77C] , answer whether its self-cleavage meets or surpasses 0.5.
Response: false

Request: # bool: self-cleavage of GGCCGCCAUGGUCCCAGCCUCCUCGCUGGCGCCGGCUGGGCAACCUUCCGAGGGGACCGUCCCCUCGGUAAUGGCGAAUGGGACCCA [G6C A45C] >= 0.5
Response: false

Request: Could you verify whether the entry GGUCGGCAUGGUCCCAGCAUCCUCGCUGGCGCCGGCUGGGCAACAUUCCGAGGGGACCGUCCCCUCGGUAAUGGCGAAUGGGACCCA [C3U C19A] shows self-cleavage of no less than 0.5?
Response: false

Request: Hi team, for GGCCGGCAAGGUCCCAGCCUCCUCGCUGGCGCCGGCUGGGCAACAUUCCGAGGGGACCGUCCCCUCGGUGAUGGCGAAUGGGACCCA [U9A A70G] , is the recorded self-cleavage at or above 0.5?
Response: true

Request: Reported self-cleavage at or above 0.5? GGCCGGCAUGGUCCCAGCCUCCUCGCUGGCGUCGGCUGGGCAACAUUCCGAGAGGACCGUCCCCUCGGUAAUGGCGAAUGGGACCCA [C32U G53A]
Response: true

Request: Is it the case that GGCCGGCAUGGUCCCAGCCUCCUCGUUGGCGCCGGCUGGGCAAGAUUCCGAGGGGACCGUCCCCUCGGUAAUGGCGAAUGGGACCCA [C26U C44G] has self-cleavage reaching or exceeding 0.5?
Response: true

Request: Confirm if self-cleavage reported for the variant GGCCGGCAUGGUCCCAGCCUCCUCGCUGGCGCGGGCUGGGCAACAUUCCGAGGGGACCGUCCCCUCGGUAAAGGCGAAUGGGACCCA [C33G U72A] is 0.5 or above.
Response: false

Request: Does the reported self-cleavage for GGCCGGAAUGGUCCCAGCCUCCUCGCUGGCGCCGGCUGGGCAACAUUCCGAGGGGAGCGUCCCCUCGGUAAUGGCGAAUGGGACCCA [C7A C57G] fall at or above the 0.5 mark?
Response: true

Request: Dear colleague, could you confirm whether GGCCGGCAUGGUCCCAGCCUCCUCGCUGGGGCCGGCUGGGCAACAUUCCGAGGGGACCGUCCCCUCGGUAAUGGCCAAUGGGACCCA [C30G G76C] has self-cleavage at or above 0.5?
Response: false

Request: Reported self-cleavage at or above 0.5? GGCCGGCAUGGUCCCAGCCUCCUCCCUGGAGCCGGCUGGGCAACAUUCCGAGGGGACCGUCCCCUCGGUAAUGGCGAAUGGGACCCA [G25C C30A]
Response: false

Request: Textbook exercise: given the entry GGACGGCAUGGUCCCAGCCUCCUCGCUGGCGCCGGCUGGGCAACAUUGCGAGGGGACCGUCCCCUCGGUAAUGGCGAAUGGGACCCA [C3A C48G] , state whether its self-cleavage is greater than or equal to 0.5.
Response: true

Request: Item GGCCGGCAUGGUCCCAGCCACCUCGCUGGCGGCGGCUGGGCAACAUUCCGAGGGGACCGUCCCCUCGGUAAUGGCGAAUGGGACCCA [U20A C32G] with self-cleavage of 0.5 or above?
Response: false

Request: # check: self-cleavage of GGCCGGCAUGGUCCCAGACUCCUCGCUGGCGCCGGCUGGGCAACAUUCCGAGGGGACCGUCCCCACGGUAAUGGCGAAUGGGACCCA [C18A U65A] is greater than or equal to 0.5
Response: false

Request: Please check the record GGCCGGCAUGGUCCCAGCCUCCUUGCUGGCGCCGGCUGGGCAACAUUCCGAGGGGACCGUCCCCUCGGUCAUGGCGAAUGGGACCCA [C24U A70C] and state if its self-cleavage is at or above 0.5.
Response: true

Request: Can GGCCGGCAUGGUCCCAGCCGCCUCGCUGGCGCCGGCUGGCCAACAUUCCGAGGGGACCGUCCCCUCGGUAAUGGCGAAUGGGACCCA [U20G G40C] be said to have self-cleavage at or above 0.5?
Response: false

Request: Is it the case that GGCCGGCAUGGUCCCAGCCUCCUCACUGGCGCCGGCUGGGCAACAUACCGAGGGGACCGUCCCCUCGGUAAUGGCGAAUGGGACCCA [G25A U47A] has self-cleavage reaching or exceeding 0.5?
Response: false
